Listed below: composite z-score values for each entry.
measurement.target: Calmodulin-1 (Homo sapiens) (UniProt P0DP23)
measurement.protocol: small molecules binding calmodulin-1 with EGTA – biochemical, small-molecule microarray, Cy5-labelled CALM1, profiling panel (AID 1111);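 note: labelled calmodulin applied in Tris saline Tween buffer holding calcium plus EGTA and DTT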
experimental.conditions: Cy5-CALM1 binding fluorescence, higher = more signal
Answer field: number only, no words.

# compound, quantity.kind, recorded.result
measured = [
    ("CCCCC[C@H]1OC[C@@]23C=C(Br)[C@@H](CC12)[C@@]1(CO1)C3=O (stereo partly specified)", "composite z-score", -0.554),
    ("CC(C)NC(=O)[C@@]1(C)c2ccccc2C(=O)N(Cc2ccc(OC(F)(F)F)cc2)[C@H]1c1ccc(CO)cc1", "composite z-score", -0.43),
]

Alright, here's another compound for you.
Record CC(C)N1C(=O)C[C@@](C(=O)O)(c2ccc([N+](=O)[O-])cc2)[C@H]1c1ccc(CO)cc1 , field composite z-score: 0.233

---

measurement.protocol: small molecules captured by biotinylated probe aFST – biochemical, small-molecule microarray, fluorescence 635/667, stem cell growth factor project, primary screen (AID 1086);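 note: score merges 667 nm fluorescence with signal-to-noise of each printed compound spot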
experimental.conditions: higher = more signal
Reported composite z-score values follow for various compounds

Examples with answers:
# compound, composite z-score
measured = [
    ("COCCOC(=O)N1C(=O)[C@@]2(c3cc(C#CC4=CCCCC4)ccc31)[C@H](c1ccccc1OCCO)N1[C@H](c3ccccc3)[C@H](c3ccccc3)OC(=O)[C@H]1[C@@H]2C(=O)N1CCN(c2ncccn2)CC1", 0.469),
    ("C=C(COC)/C(=C/C[C@H](OC(=O)c1ccncc1)c1ccc(CO)o1)c1cnc2ccccc2c1", -0.0236),
    ("C=CCC(OC(C)=O)[C@@H]1[C@@H](N(Cc2cc3ccccc3o2)C(=O)Cc2ccc(F)cc2)c2cc(OCCCO)ccc2N1C(=O)Cc1ccc2ccccc2c1 (some centres not stated)", 0.0652),
]

The recorded composite z-score for CO[C@H]1O[C@H](CO)[C@@H](OC(=O)CCc2ccccc2)[C@@H]2OC(=O)[C@@H](Cc3ccccc3)C/C=C/C[C@H](Cc3ccccc3)C(=O)O[C@@H]12 is 0.671

Per the record, O=C(NCCN1CCOCC1)[C@@H]1c2ccccc2C(=O)N(Cc2ccccc2Cl)[C@H]1c1ccc(CO)cc1 has composite z-score of 0.263

Per the records, this compound ( CN(C)C(=O)[C@@]1(Cc2ccccc2CN=[N+]=[N-])N=C(c2ccc(OCCCO)cc2)O[C@H]1c1ccccc1N=[N+]=[N-] ) has composite z-score equal to 1.44

# compound COc1cc(C(O)C2C=CC3C(=O)N(C)C(=O)C3N2Nc2ccccc2)cc(OC)c1OC (configuration not stated) ; its composite z-score = 1.53

---

measurement.target: Albumin (Bos taurus) (UniProt P02769)
Sequence (P02769 whole entry, looked up): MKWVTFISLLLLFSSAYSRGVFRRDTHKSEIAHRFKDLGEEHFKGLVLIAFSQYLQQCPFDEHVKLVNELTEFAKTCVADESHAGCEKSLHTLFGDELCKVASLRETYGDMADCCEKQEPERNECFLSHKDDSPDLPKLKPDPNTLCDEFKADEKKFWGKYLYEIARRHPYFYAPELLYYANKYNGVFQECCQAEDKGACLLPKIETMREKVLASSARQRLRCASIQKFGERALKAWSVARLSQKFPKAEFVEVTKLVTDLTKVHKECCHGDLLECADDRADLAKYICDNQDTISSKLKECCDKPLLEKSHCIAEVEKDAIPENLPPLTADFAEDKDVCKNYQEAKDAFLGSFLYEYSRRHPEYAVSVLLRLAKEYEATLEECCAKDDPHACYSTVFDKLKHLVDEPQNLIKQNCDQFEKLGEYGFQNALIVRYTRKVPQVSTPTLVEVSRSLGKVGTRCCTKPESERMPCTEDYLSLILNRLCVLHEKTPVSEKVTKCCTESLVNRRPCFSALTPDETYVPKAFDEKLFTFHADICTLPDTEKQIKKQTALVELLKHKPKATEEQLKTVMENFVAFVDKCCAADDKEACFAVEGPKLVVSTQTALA
measurement.protocol: compounds binding labelled BSA control protein – biochemical, small-molecule microarray, Alexa647 label, 635/667 nm fluorescence, artefact control for SMM control protein annotation, profiling panel (AID 1118);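 note: score merges 667 nm emission intensity and signal-to-noise per printed compound spot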
experimental.conditions: BSA-A647 binding, fluorescence 635 nm, higher = more signal
quantity.kind: composite z-score
// response body must contain only the number

Solved entries:
# compound, measurement.target, composite z-score
records = [
    ("COc1cc(NN2C(C(O)c3ccc(N(C)C)cc3)C=CC3C(=O)N(c4ccccc4)C(=O)C32)cc(OC)c1OC (centres undefined)", "Albumin (Bos taurus) (UniProt P02769)", 0.353),
    ("CCCN1C(=O)[C@@]2(Cc3ccccc31)N=C(c1ccc(OCCCO)cc1)O[C@H]2c1ccccc1", "Albumin (Bos taurus) (UniProt P02769)", -0.324),
    ("CC(C)NC(=O)[C@@]1(c2ccc([N+](=O)[O-])cc2)CC(=O)N(C2CCCCC2)[C@@H]1c1ccc(CO)cc1", "Albumin (Bos taurus) (UniProt P02769)", 0.807),
]

Note: attention shifts to another entry.
With Albumin (Bos taurus) (UniProt P02769) as the test system, O=C1N(CCS(=O)(=O)c2ccccc2)c2ccccc2[C@H]2OC(c3ccc(OCCCO)cc3)=N[C@@]12Cc1ccccc1 showed composite z-score of -0.154

---

measurement.target: Carbonic anhydrase 2 (Homo sapiens) (UniProt P00918)
measurement.protocol: compounds binding carbonic anhydrase 2 – biochemical, small-molecule microarray, Alexa647-labelled CAII, profiling panel (AID 1122)
experimental.conditions: CAII-A647 binding fluorescence, higher = more signal
List of composite z-score values.
Just the number, please.

Worked set:
# smiles, composite z-score
data = [
    ("[N-]=[N+]=NCc1ccccc1C[C@@]1(C(N)=O)N=C(c2ccc(OCCCO)cc2)O[C@@H]1c1ccccc1", 0.693),
    ("COC(=O)[C@@H]1N=C(c2ccc(OCCCO)cc2)O[C@@H]1C", -0.153),
    ("O=C1O[C@H](c2ccccc2)[C@H](c2ccccc2)N2[C@H]1[C@@H](C(=O)O)[C@]1(C(=O)Nc3ccc(C#CCCO)cc31)[C@H]2c1ccccc1OCCO", 0.729),
]

Per the record, COCCOC(=O)N1C(=O)[C@@]2(c3cc(C#CCNC(N)=O)ccc31)[C@H](C(N)=O)[C@H]1C(=O)O[C@H](c3ccccc3)[C@H](c3ccccc3)N1[C@@H]2c1ccccc1OCCO has composite z-score of 0.3

---

measurement.target: E3 ubiquitin-protein ligase XIAP (Homo sapiens) (UniProt P98170)
Sequence (P98170 whole entry, looked up): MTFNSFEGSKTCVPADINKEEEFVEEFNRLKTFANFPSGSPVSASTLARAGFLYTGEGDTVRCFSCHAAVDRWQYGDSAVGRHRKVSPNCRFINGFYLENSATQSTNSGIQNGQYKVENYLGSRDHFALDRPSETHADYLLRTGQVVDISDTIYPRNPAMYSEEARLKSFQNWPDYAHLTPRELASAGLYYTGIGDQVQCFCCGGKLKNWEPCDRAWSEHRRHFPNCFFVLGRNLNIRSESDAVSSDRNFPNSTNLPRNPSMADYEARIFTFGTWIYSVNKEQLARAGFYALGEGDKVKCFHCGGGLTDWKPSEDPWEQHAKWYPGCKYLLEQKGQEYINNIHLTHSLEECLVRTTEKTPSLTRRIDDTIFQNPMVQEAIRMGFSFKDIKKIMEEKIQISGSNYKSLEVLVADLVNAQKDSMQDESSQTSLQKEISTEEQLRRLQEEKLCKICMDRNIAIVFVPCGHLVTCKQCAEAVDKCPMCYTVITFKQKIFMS
measurement.protocol: small molecules binding XIAP protein – biophysical, small-molecule microarray, fluorescence 635 nm, primary screen (AID 1181);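 note: score merges 667 nm emission and signal to noise over triplicate slides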
experimental.conditions: higher = more signal
quantity.kind: composite z-score
Give a plain numeric answer without units written out.

Sample records with composite z-score:
# compound, composite z-score
rows = [
    ("COCCCNC(=O)[C@@H]1c2ccccc2C(=O)N(C(C)C)[C@H]1c1ccc(CO)cc1", -0.127),
    ("COc1ccc([Si](C)(C)[C@@H]2[C@@H](CC(=O)N(CCO)Cc3ccccc3)O[C@]3(C(=O)N(Cc4cccc(N5CCCCC5=O)c4)c4ccccc43)[C@H]2C)cc1", -0.138),
    ("COc1ccc(C#Cc2ccc3c(c2)[C@]2(C(=O)N3)[C@H](c3ccc(O)cc3)N3[C@H](c4ccccc4)[C@H](c4ccccc4)OC(=O)[C@H]3[C@@H]2C(=O)Nc2nc3ccccc3s2)cc1", 0.289),
    ("C=C(COC)/C(=C/C[C@H](OC(=O)c1ccncc1)c1ccccc1OCCO)c1cc(C(=O)OC)ccc1OC", -0.157),
]

Query C=CCNC(=O)[C@H]1[C@@H]2C(=O)O[C@@H](c3ccccc3)[C@@H](c3ccccc3)N2[C@@H](c2ccccc2OCCO)[C@]12C(=O)N(C(=O)OCCOC)c1ccc(C#CC3(O)CCCCCC3)cc12 yields composite z-score of -0.259

---

measurement.protocol: blockers of DNA damage checkpoint Chk1 activation – imaging, HeLa, hydroxyurea, phospho-Chk1 antibody, percent positive cells, primary screen (AID 1186)
experimental.conditions: hydroxyurea-induced phospho-Chk1 immunofluorescence imaging, higher = more signal
Classes are defined on z-score with ranges lower level (below -0.3), middle level (-0.3 to below 0.4), upper level (0.4 or more)

# compound, assigned.class
data = [
    ("CC1CC/C=C\\[C@H]2OC34C=CCN(c5ccc6ccccc6c5)C(=O)[C@H]3N(CCCO)C(=O)[C@@H]4C2C(=O)O1 (stereo not given in full)", "upper level"),
    ("O=C1O[C@H](c2ccccc2)[C@H](c2ccccc2)N2[C@H]1[C@@H](C(=O)O)[C@]1(C(=O)Nc3ccc(C#CCCO)cc31)[C@H]2c1ccccc1OCCO", "upper level"),
    ("NC(=O)[C@H]1[C@@H]2C(=O)O[C@@H](c3ccccc3)[C@@H](c3ccccc3)N2[C@@H](c2ccc(OCCO)cc2)[C@]12C(=O)Nc1ccc(C#CCCO)cc12", "lower level"),
    ("Cc1ccc(C(C)CC(O)C2C=CC3C(=O)N(c4ccccc4)C(=O)C3N2Nc2ccccc2)o1 (stereo not given)", "middle level"),
    ("C=CC[C@@]1(C(=O)NCCCOC)N=C(c2ccc(OCCCO)cc2)O[C@@H]1c1ccccc1", "lower level"),
    ("CC(C)C(CO)N1C(=O)[C@@H]2C3C(=O)OCCC/C=C\\[C@H]3OC23C=CCN(c2ccc4ccccc4c2)C(=O)[C@@H]13 (stereo not given in full)", "upper level"),
    ("CC[C@@H]1C=C(C(=O)O)[C@H](c2ccc(C#N)cc2)N1S(=O)(=O)c1ccc(C)cc1", "middle level"),
    ("[N-]=[N+]=Nc1ccccc1C[C@]1(C(=O)NCCN2CCOCC2)COC(c2ccc(OCCCO)cc2)=N1", "lower level"),
]

## Task Band for O=C1C2C=CC(C(O)c3ccco3)N(Nc3ccccc3F)C2C(=O)N1c1ccccc1 (stereo not given) ?
## Result upper level

## Task # bin lookup: classify CC(C)[Si](C#CCCCC#N)(O[C@H](c1ccccc1)c1cn(Cc2ccccc2)nn1)C(C)C by its z-score
## Result lower level

## Task In plain terms, what class is CCOC(=O)C[C@H]1[C@H](OC(=O)c2ccc(C(=O)c3ccccc3)cc2)[C@@H](NC(=O)C2CCCCC2)c2cc(OCCCO)ccc2N1C(=O)c1ccc2ccccc2n1 ?
## Result lower level

## Task Textbook exercise: identify the category of the compound given here, CCCCCN1CC=CC23O[C@@H]4C=CCCOC(=O)C4[C@H]2C(=O)N(CCCCCCO)[C@@H]3C1=O (stereo not given in full) , according to its measured value.
## Result middle level

## Task Hi there! Could you help me figure out the category for CC(=O)NCCCC[C@@H]1NC(=O)[C@@H]2C[C@H](C(=O)NCCCCCN)[C@H](c3ccc(O)cc3)N2C1=O please?
## Result middle level

Values compiled from PubChem BioAssay.
